assay.target: Peroxisome proliferator-activated receptor alpha (Homo sapiens)
assay.explanation: qHTS assay for small molecule agonists of the peroxisome proliferator-activated receptor alpha (PPARalpha) signaling pathway (AID 651778); note: % of control where 0% means no effect
cond: PathHunter PPARalpha complementation, chemiluminescence, 6 h; stronger effect = higher value
Calls of active or inactive are those of the source. Calls come from the whole dose curve; as a rule, active = well fitted activation curve with a large enough effect; inconclusive = small, poorly fitted or top-dose-only effect; inactive = flat fitted curve, though single readings scatter.
value.kind: max response

Consider the worked cases shown below.
# molecule, experimental.value
data = [
    ("CC(=O)OCc1ccco1", "-0.503% (inactive)"),
    ("O=Nc1ccc(NO)cc1", "-1.48% (inactive)"),
    ("CCOc1cccc(N)c1", "0.865% (inactive)"),
    ("CC(=O)Nc1ccccc1C", "-1.36% (inactive)"),
    ("Cc1ccc(C)cc1", "-4.74% (inactive)"),
    ("Cc1nc2ccc(Cl)cc2[nH]1", "-1.28% (inactive)"),
]

stdin: Give the measured max response for `Cc1cccc(C(=O)O)c1`
stdout: -3.59% (inactive)

stdin: Specify max response for `O=Cc1cccc(Br)c1` and stop.
stdout: -2.07% (inactive)

stdin: Assign max response to the following record: CC(C)(c1cc(Br)c(OCC(Br)CBr)c(Br)c1)c1cc(Br)c(OCC(Br)CBr)c(Br)c1 (configuration not stated)
stdout: -5.28% (inactive)

stdin: Quickly give me recorded max response for `O=[N+]([O-])c1ccc2nc[nH]c2c1`
stdout: -4.28% (inactive)

stdin: Answer with the recorded max response of `CCCC=O` only.
stdout: 2.48% (inactive)

stdin: Quote max response reported for CC1CCC2CC1C2(C)C (configuration not stated) please.
stdout: -3.48% (inactive)

stdin: For the molecule CCCOCC(C)O (configuration not stated) , give its measured max response value.
stdout: -5.25% (inactive)

stdin: Report measured max response; entry is `Cc1ccco1`
stdout: -4.89% (inactive)

stdin: Answer with the recorded max response of CC1CCCO1 (configuration not stated) only.
stdout: 0.088% (inactive)

stdin: Look up and state reported max response for `C=C(C)C(=O)OCC(C)C`
stdout: -4.6% (inactive)

stdin: For the molecule `CCN(Cc1ccccc1)c1ccccc1` , give its reported max response.
stdout: 3.08% (inactive)

stdin: Output measured max response for this item: `Cc1ccccc1Br`
stdout: -3.06% (inactive)

stdin: Consider the molecule CC(=O)C1(C)CC2=C(CCCC2(C)C)CC1C (configuration not stated) and give its recorded max response.
stdout: -0.376% (inactive)

stdin: Fill in reported max response for this entry: `Cc1c(N)cccc1N`
stdout: 0.845% (inactive)

stdin: Name the recorded max response of the item `COc1ccc(OC)cc1` in your answer.
stdout: -4.92% (inactive)

====

assay.explanation: Cell Viability - N2a (AID 540);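 note: cells exposed to compound for 40 h at 37 °C; plate controls were DMSO alone for no effect and tamoxifen control for full effect; nearly all actives have a fitted effect of over 45% in size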
cond: N2a mouse neuroblastoma cell viability; at 92.2 µM (top of the series)
Text: NIH Chemical Genomics Center [NCGC] NIH Molecular Libraries Screening Centers Network [MLSCN] National Institutes of Environmental Health Sciences [NIEHS] National Toxicology Program [NTP] We have developed a 1536-well cell-based assay for quantitative high throughput screening (qHTS) against a number of cell lines to determine in vitro cytotoxicity of small molecules. […] 8. Detection; Luminescence; Viewlux plate reader […]
Results filed as inconclusive are left out.
Below, each entry is listed alongside its reported activity change, negative = cytotoxicity.
I only need the number, in %, no unit after it.

Past entries and their recorded results:
# compound, activity change, negative = cytotoxicity / %
data = [
    ("Oc1c(Cl)ccc(Cl)c1Cl", -9.1),
    ("Nc1cc(S(=O)(=O)O)ccc1O", -15.5),
    ("COC(=O)CS", -8.95),
    ("c1ccc2c(c1)ccc1ncccc12", -0.126),
    ("CC#N", 0.749),
    ("BrC/C=C/CBr", 6.2),
]

stdin: Give the value of activity change, negative = cytotoxicity reported for the following: `C=CCOC(=O)COCCC(C)C`
stdout: -4.01

stdin: Tell us which activity change, negative = cytotoxicity value is on record for CCC1CO1 (centres undefined)
stdout: -4.66

stdin: Give me measured activity change, negative = cytotoxicity, please, for this compound: CC1CCC2CC1C2(C)C (centres undefined)
stdout: -4.47

stdin: Quote activity change, negative = cytotoxicity reported for `O=C1CCCCC1` please.
stdout: -6.92

stdin: Output activity change, negative = cytotoxicity of `O=C(O[C@@H](C(=O)O)[C@@H](OC(=O)c1ccccc1)C(=O)O)c1ccccc1`
stdout: 4.68

stdin: Input `Cc1cc(C)c(N)cc1C` , output reported activity change, negative = cytotoxicity.
stdout: -1.04

stdin: Quick one: give measured activity change, negative = cytotoxicity for `O=c1[nH][nH]c(=O)c2cc([N+](=O)[O-])ccc12`
stdout: 11.9

stdin: Identify activity change, negative = cytotoxicity associated with the compound `ICCc1ccccc1`
stdout: 0.359
